List of pKd values.
measured.on: CSF1R (Homo sapiens)
Sequence (P07333 20-972): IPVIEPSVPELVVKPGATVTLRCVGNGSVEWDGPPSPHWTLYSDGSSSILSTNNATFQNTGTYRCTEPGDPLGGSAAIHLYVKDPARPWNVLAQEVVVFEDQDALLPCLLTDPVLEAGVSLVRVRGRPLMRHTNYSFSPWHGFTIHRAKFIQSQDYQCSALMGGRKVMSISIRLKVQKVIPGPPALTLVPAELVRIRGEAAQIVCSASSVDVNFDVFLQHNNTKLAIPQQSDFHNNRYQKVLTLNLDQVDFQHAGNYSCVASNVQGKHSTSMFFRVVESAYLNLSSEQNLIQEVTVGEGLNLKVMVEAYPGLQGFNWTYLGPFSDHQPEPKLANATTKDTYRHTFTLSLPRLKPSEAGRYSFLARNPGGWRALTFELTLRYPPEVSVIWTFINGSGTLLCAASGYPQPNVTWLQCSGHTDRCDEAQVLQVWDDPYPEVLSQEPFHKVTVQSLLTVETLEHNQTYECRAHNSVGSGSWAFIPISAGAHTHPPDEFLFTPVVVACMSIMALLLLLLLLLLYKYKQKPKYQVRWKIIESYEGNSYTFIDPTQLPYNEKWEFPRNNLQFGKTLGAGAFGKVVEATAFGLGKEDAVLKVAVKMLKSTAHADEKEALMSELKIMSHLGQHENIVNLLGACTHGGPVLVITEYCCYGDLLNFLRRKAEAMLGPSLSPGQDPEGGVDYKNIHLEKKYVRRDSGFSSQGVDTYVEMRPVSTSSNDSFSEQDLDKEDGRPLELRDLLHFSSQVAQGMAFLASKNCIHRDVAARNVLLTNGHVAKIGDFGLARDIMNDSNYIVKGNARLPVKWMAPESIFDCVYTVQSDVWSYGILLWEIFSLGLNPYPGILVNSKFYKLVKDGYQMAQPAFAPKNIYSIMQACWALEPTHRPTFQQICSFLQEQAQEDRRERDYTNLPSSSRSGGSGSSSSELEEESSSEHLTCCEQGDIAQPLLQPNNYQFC
procedure.text: Competition binding assay, CSF1R Kd
Design: made in house
Protocol: Competition binding assays used herein were developed, validated and performed as described in Fabian et al., Nature Biotechnology 2005, 23, 329-336. […] Kds were determined using an eleven point threefold serial dilutions. […] The kinase concentration in the eluates was measured by quantitative PCR.
pKd: −log10 of the molar value.

| chem.smiles | pKd |
| --- | --- |
| CS(=O)(=O)O.O[C@@H]1CCCC[C@H]1Nc1nc2ccc(Cn3cnc4cccnc43)cc2s1 | ≥ 8.30 |
| COc1cc2ncn(Cc3ccc4nc(N[C@H]5CCc6ccccc65)sc4c3)c2cc1OC | 7.70 to 8.30 |
| COC(=O)c1cnc2c(c1)ncn2Cc1ccc2nc(N[C@@H]3CCCC[C@H]3O)sc2c1 | 7.70 to 8.30 |
| COc1cc2ncn(Cc3ccc4nc(N[C@@H](C)C5CCCCC5)sc4c3)c2cc1OC | 7.70 to 8.30 |
| Cn1nnc(-c2cnc3c(c2)ncn3Cc2ccc3nc(N[C@@H]4CCCC[C@H]4O)sc3c2)n1 | 7.70 to 8.30 |
| O[C@@H]1CCCC[C@H]1Nc1nc2ccc(Cn3cnc4cc(-c5nn[nH]n5)cnc43)cc2s1 | 7.70 to 8.30 |
| CNC(=O)c1cn(Cc2ccc3nc(N[C@@H]4CCCC[C@H]4O)sc3c2)cn1 | < 7.30 |
| COc1ccc2ncn(Cc3ccc4nc(N[C@@H]5CCCC[C@H]5O)sc4c3)c2n1 | ≥ 8.30 |

* * *

measured.on: FLT3 (Homo sapiens, UniProt P36888)
Construct: made in house
procedure.text: Competition binding assay, FLT3 Kd
cond: competition binding
Method: Competition binding assays used herein were developed, validated and performed as described in Fabian et al., Nature Biotechnology 2005, 23, 329-336. […] Kds were determined using an eleven point threefold serial dilutions. […] The kinase concentration in the eluates was measured by quantitative PCR.
pKd: −log10 of the molar value.

| molecule | pKd |
| --- | --- |
| O[C@@H]1CCCC[C@H]1Nc1nc2ccc(Cc3cnc4cccc(F)n34)cc2s1 | ≥ 6.70 |
| O[C@@H]1CCCC[C@H]1Nc1nc2ccc(Cc3cnc4ccc(-n5cccn5)cn34)cc2s1 | 5.30 to 6.00 |
| CCOc1ccc2c(c1)ncn2Cc1ccc2nc(N[C@@H]3CCCC[C@H]3O)sc2c1 | 6.00 to 6.70 |
| CC(O)c1cnc2c(c1)ncn2Cc1ccc2nc(N[C@@H]3CCCC[C@H]3O)sc2c1 (stereo partly shown) | 5.30 to 6.00 |

* * *

measured.on: FLT3 (Homo sapiens, UniProt P36888)
Construct: made in house
Sequence (P36888 27-993): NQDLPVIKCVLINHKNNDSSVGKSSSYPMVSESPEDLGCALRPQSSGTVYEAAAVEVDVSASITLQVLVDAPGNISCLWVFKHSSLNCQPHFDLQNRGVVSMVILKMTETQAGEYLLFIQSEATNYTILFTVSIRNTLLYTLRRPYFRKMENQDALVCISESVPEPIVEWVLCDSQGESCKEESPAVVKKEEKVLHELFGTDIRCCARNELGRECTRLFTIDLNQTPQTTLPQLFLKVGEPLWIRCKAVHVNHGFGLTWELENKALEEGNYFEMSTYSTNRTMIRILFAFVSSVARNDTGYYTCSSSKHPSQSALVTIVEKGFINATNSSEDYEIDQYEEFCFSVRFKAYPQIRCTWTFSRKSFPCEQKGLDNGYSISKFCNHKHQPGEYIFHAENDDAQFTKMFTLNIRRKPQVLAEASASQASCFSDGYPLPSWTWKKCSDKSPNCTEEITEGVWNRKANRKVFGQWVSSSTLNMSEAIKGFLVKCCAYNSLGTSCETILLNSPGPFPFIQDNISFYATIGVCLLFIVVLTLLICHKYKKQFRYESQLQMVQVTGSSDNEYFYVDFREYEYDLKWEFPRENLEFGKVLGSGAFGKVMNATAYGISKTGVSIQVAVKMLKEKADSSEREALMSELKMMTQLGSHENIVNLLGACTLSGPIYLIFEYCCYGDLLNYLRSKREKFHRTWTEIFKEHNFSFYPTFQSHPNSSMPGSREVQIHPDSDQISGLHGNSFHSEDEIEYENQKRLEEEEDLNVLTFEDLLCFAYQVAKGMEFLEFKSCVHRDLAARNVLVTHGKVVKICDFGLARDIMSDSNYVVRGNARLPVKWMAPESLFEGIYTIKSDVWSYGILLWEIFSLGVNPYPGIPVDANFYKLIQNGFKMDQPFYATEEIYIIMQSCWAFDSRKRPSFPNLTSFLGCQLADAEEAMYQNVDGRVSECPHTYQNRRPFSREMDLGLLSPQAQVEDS
procedure.text: Competition binding assay, FLT3 Kd
cond: competition binding

| chem.smiles | Kd |
| --- | --- |
| Cc1cc(Br)cc2ncn(Cc3ccc4nc(N[C@@H]5CCCC[C@H]5O)sc4c3)c12 | 200 to 1000 nM |
| OC1CCN(c2ccn3c(Cc4ccc5nc(N[C@@H]6CCCC[C@H]6O)sc5c4)cnc3c2)CC1 | > 5000 nM |
| OC[C@H]1CC[C@H](Nc2nc3ccc(Cn4cnc5cc(F)cnc54)cc3s2)CC1 | 1000 to 5000 nM |
| OCCOc1ccc2c(c1)ncn2Cc1ccc2nc(N[C@@H]3CCCC[C@H]3O)sc2c1 | 200 to 1000 nM |
| N#Cc1cc2ncn(Cc3ccc4nc(N[C@@H]5CCCC[C@H]5O)sc4c3)c2nc1C#N | 200 to 1000 nM |
| O=C(c1ccn2c(Cc3ccc4nc(N[C@@H]5CCCC[C@H]5O)sc4c3)cnc2c1)N1CCCC1 | 1000 to 5000 nM |
| CC(C)(O)c1cnc2c(c1)ncn2Cc1ccc2nc(N[C@@H]3CCCC[C@H]3O)sc2c1 | 1000 to 5000 nM |
| CC(=O)c1ccc2c(c1)ncn2Cc1ccc2nc(N[C@@H]3CCCC[C@H]3O)sc2c1 | 1000 to 5000 nM |
